tgt: T1, cTnI quality control product recombinant protein (human, UniProt P19429 2-210, limits assumed)
T1 construct: treated as the same molecule; also called cTnI antigen; cardiac troponin I
test.summary: AMC sensor, antibody immobilised, cTnI in solution
For each of the binders below, state its kon.
Give bare numbers, in M⁻¹ s⁻¹.

Before answering, review these 4 worked examples.
Mutation 1-13 (antibody, V domains shown, Built as m8) VH: EVQLQQSGPELVKPGASVKMSCKASGYTFTIYVLHWVKQKPGQGLEWIGYINPYIDGTKYNEKFKGKATLTVDKSSSTAFMELSSLTSEDSAVYYCARSGYGNYGLAWLAYWGQGTLVTVSA VL: QAVVIQESALTTSPGETVTLTCRSSTGAATTSNYANWVQEKPDHLFTGLIGGSQNRAPGVPARFSGSLIGDKAALTITGAQTEDEAIYFCALVYSNNWVFGGGTKLTVLG    27300
Mutation 1-40 (antibody, V domains shown, Built as m8) VH: EVQLQQSGPELVKPGASVKMSCKASGYTFTIYVLHWVKQKPGQGLEWIGYIQPYLDGTKYNEKFKGKATLTVDKSSSTAFMELSSLTSEDSAVYYCARSGYGNYGLAWLAYWGQGTLVTVSA VL: QAVVIQESALTTSPGETVTLTCRSSTGAVTTSNYANWVQEKPDHLFTGLIGGSNNRAPGVPARFSGSLIGDKAALTITGAQTEDEAIYFCALVYSNNWVFGGGTKLTVLG    21900
Mutation 1-26 (antibody, V domains shown, Built as m8) VH: EVQLQQSGPELVKPGASVKMSCKASGYTFTIYVIHWVKQKPGQGLEWIGYIYPYLDGTKYNEKFKGKATLTVDKSSSTAFMELSSLTSEDSAVYYCARSGYGGYGLAWLAYWGQGTLVTVSA VL: QAVVIQESALTTSPGETVTLTCRSSTGAVTTSQYANWVQEKPDHLFTGLIGGSNNRAPGVPARFSGSLIGDKAALTITGAQTEDEAIYFCALVYSNQWVFGGGTKLTVLG    39800
WT 1-51 (antibody, V domains shown, Heavy chain built as m63) VH: EVQLQQSGPELVKPGASVKMSCKASGYSFTIYVVHWVKQKPGQGLEWIGYIQPYIDGTRYNEKFKGKATLTVDKSSSTAFMELSSLTSEDSAVYYCARTGYGQYGLAWLAYWGQGTLVTVSA VL: QAVVIQESALTTSPGETVTLTCRSSSGAATTSQYANWVQEKPDHLFTGLIGGSNNRAPGVPARFSGSLIGDKAALTITGAQTEDEAIYFCAIVYSNHWVFGGGTKLTVLG    14900

Shifting focus to the binder that follows.
Query string: Tell me the measured kon of Mutation 1-11 (antibody, V domains shown, Built as m8) VH: EVQLQQSGPELVKPGASVKMSCKASGYTFTLYVIHWVKQKPGQGLEWIGYINPYIDGTKYNEKFKGKATLTVDKSSSTAFMELSSLTSEDSAVYYCARSGYGGYGLAWLAYWGQGTLVTVSA VL: QAVVIQESALTTSPGETVTLTCRSSTGAVTTSNYANWVQEKPDHLFTGLIGGSQNRAPGVPARFSGSLIGDKAALTITGAQTEDEAIYFCALVYSNNWVFGGGTKLTVLG , please.
Result string: 33500
